# system: T1, HCoV-NL63-N protein (HCoV-NL63, UniProt Q6Q1R8 1-377)
# T1 construct: also called NL63-CoV N
# T1 sequence: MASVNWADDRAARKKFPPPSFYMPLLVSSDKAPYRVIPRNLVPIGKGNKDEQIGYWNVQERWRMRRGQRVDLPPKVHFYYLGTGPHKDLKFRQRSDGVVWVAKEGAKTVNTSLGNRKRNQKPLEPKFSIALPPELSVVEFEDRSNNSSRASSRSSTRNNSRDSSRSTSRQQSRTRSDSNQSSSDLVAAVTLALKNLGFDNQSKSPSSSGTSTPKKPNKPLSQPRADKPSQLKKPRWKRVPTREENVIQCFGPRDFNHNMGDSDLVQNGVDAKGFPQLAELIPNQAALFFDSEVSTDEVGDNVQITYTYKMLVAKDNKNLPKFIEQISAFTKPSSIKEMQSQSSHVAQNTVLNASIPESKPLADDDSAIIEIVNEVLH
# experimentalDetails: ELISA, IgG1 on recombinant N protein
measurementKind: EC50

binder	EC50
antibody #36 (antibody, V domains shown, also called IgG1#36; D36) VH: EVQLVESGGGLVQPGGSLRLSCAASGFTINRYSIHWVRQAPGKGLEWVAGIWPFGGDTTYADSVKGRFTISADTSKNTAYLQMNSLRAEDTAVYYCARGATSHDYWGQGTLVTVSS VL: DIQMTQSPSSLSASVGDRVTITCRASQDVTTTVAWYQQKPGKAPKLLINKGSWLYSGVPSRFSGSGSGTDFTLTISSLQPEDFATYYCQQYNKWPLTFGQGTKVEIKR	> 2 µg/mL

Attention now shifts to the item below.
Name the recorded EC50 for antibody #33 (antibody, V domains shown, also called D33; C33) VH: EVQLVESGGGLVQPGGSLRLSCAASGFTINNGGIHWVRQAPGKGLEWVAGIWPFWGSTSYADSVKGRFTISADTSKNTAYLQMNSLRAEDTAVYYCARGSYGFDYWGQGTLVTVSS VL: DIQMTQSPSSLSASVGDRVTITCRASQDVYSSVAWYQQKPGKAPKLLIFGSSFLYSGVPSRFSGSGSGTDFTLTISSLQPEDFATYYCQQYYDWPITFGQGTKVEIKR .
> 2 µg/mL
